# System: OVCAR-4 ovarian
# Protocol Description: NCI tumour cell line growth inhibition, 48 h; in the data active = GI50 below about 0.43 µM; inactive = the rest
Entry note: the call must match one of active, inactive

Compound: COC(=O)c1cc2c(s1)-c1nccc3c1c(nc1ccccc13)C2=O
Assigned Category: inactive

Compound: CN(C)CCC(=O)C(=Cc1ccc(O)cc1)C(=O)CCN(C)C
Assigned Category: inactive

Compound: O=C1c2cccc3cccc(c23)C(=O)N1CCCCCN1CCN(CCCCCOc2ccc(-c3nc4ccc(N5CCOCC5)cc4[nH]3)cc2)CC1
Assigned Category: inactive

Compound: O=[N+]([O-])c1ccc(CI)cc1
Assigned Category: inactive

Compound: CC(C)OC(=O)[C@H](C)NP(=O)(OC[C@H]1O[C@@H](n2ccc(=O)[nH]c2=O)[C@](C)(F)[C@@H]1O)Oc1ccccc1 (stereo not given in full)
Assigned Category: inactive

Compound: COc1cc(/C=C/C(=O)c2cccc(-n3cc(-c4ccc(Cl)cc4)[nH]c3=O)c2)ccc1O
Assigned Category: inactive

Called result for `COC(=O)c1ccc2c(c1)/C(=C\c1cc(Br)c(O)c(Br)c1)C(=O)N2`
inactive

Test call, this compound: `O=[N+]([O-])c1cccc2ccc(N/N=C/c3ccccc3O)nc12`
inactive

Recorded test call requested for `COc1ccccc1Nc1ncc(-c2ccccc2)o1`
inactive

Record lookup: outcome of this test for `CN(C)c1ccc(N=Nc2ccccn2)c(O)c1` ?
active

###

# TGI annotations
# Tested on: NCI-H460 lung
# Protocol Description: NCI tumour cell line growth inhibition, 48 h

The cases that follow already have their TGI on record.
Compound: Cn1c2c(c3ccccc31)CCN1C(=O)CN(C(=O)C3CCCCC3)CC21 (stereo not given)
TGI: > 100 µM

Compound: CN(C)c1ncnc2c1ncn2CCn1cnc2c(N(C)C)ncnc21
TGI: > 100 µM

Param item = COc1ccc(C2=C(c3ccc(OC)cc3)C(=O)N3CCCC3C2)cc1 (stereo not given) ; retrieve measured TGI.
> 40.9 µM

Entry `COc1ccc2c(c1)CCCN2CCCCCCCCCCN(CCC(C)C)CCC(C)C` : reported TGI = ?
24.3 µM

Record request: TGI value, item `CCc1nc(N)nc(N)c1-c1ccc([N+](C)(C)C)cc1`
> 100 µM

Need TGI, item Cc1ccc2c(C3C(C#N)=C(N)Oc4cc5ccccc5cc43)cc(=O)oc2c1 (stereo not given)
15.5 µM

Please report the recorded TGI for COC(=O)C1=C(C(=O)OC)C2=S(SC3=C2CCCC3)S1 (stereo not given) .
> 100 µM

For the compound `COC(=O)[C@@]1(C)/C(=N/NS(=O)(=O)c2ccc(C)cc2)CCC[C@@H]1C` , what TGI is on record?
> 100 µM

# get_value(readout='TGI', item= `COC(=O)C(C(=O)Cc1ccccc1[N+](=O)[O-])C(=O)OC` )
> 100 µM

Look at this compound and give its reported TGI. `CSc1ccsc1-c1sc(-c2cc(SC)c(-c3sc(-c4cc(SC)c(-c5sccc5SC)s4)cc3SC)s2)cc1SC`
> 100 µM

Looking for the measured TGI of `Cc1c2cccc-2c(OCCO)cc2c3ccccc3n(C)c12` , can you help?
18.3 µM

What measured TGI goes with FC(F)(F)c1ccc2c(c1)nc(-c1ccc(Cl)cc1)n2CC1CCCN2CCCCC12 (stereo not given) ?
31.4 µM

Give its TGI value. Item: `Cc1ncc([N+](=O)[O-])n1CCNCCCCn1ccnc1[N+](=O)[O-]`
> 100 µM

Suppose we examine the compound `Cc1cc(C(F)(F)F)cc(-n2nc(NS(=O)(=O)c3cc(C)c(Cl)cc3S)nc2N)n1` ; what TGI value has been reported?
70.7 µM

# get_value(readout='TGI', item= CC(C)OC(=O)[C@H](C)NP(=O)(OC[C@H]1O[C@@H](n2ccc(=O)[nH]c2=O)[C@](C)(F)[C@@H]1O)Oc1ccccc1 (stereo not given in full) )
> 100 µM

Returns the measured TGI for the input compound. Input: `CCOC(=O)c1ccc(N=Nc2cc(C(=O)OCC)ccc2O)cc1`
> 100 µM

Bench note: what TGI did `Cc1nc2cc(Nc3nc(Nc4ccc(F)cc4)nc(-c4cccs4)n3)ccc2n1Cc1ccccc1` show?
20.4 µM

Look up TGI: Cc1ccc(S(=O)OCc2c(C)c(C)c(COS(=O)c3ccc(C)cc3)c(C)c2C)cc1 (stereo not given)
> 100 µM

###

# key: entry, value: log10 of TGI
# Test system: NCI-H522 lung
# Protocol Description: NCI tumour cell line growth inhibition, 48 h
Would you kindly interpret these values as log10 of TGI expressed in µM?

Molecule: O=C(O)CCSC(CC1(c2ccc(Cl)cc2)NC(=O)CCS1)c1ccccc1 (stereo unspecified)
log10 of TGI: 1.62

Return reported log10 of TGI; argument: `CN(C)CCSc1cc(-c2ccccc2)c2ccccc2n1`
1.38

What value of log10 of TGI has been recorded for this entry: `O=C(Nc1cc(C(F)(F)F)ccc1Cl)c1cccc(NC2=C(Cl)C(=O)N(Cc3ccccc3)C2=O)c1`
1.66

Record request: log10 of TGI value, item `O=C1c2cc3c(cc2-c2c1c1cc(Cl)c(Cl)cc1c(=O)n2C[C@H](O)CO)OCO3`
-0.91

Sample COC(=O)C1=C(C(=O)OC)C2=S(SC3=C2CCCC3)S1 (stereo unspecified) — what was its log10 of TGI?
1.05

###

# Test system: SF-539 CNS
# Protocol Description: NCI tumour cell line growth inhibition, 48 h
Reported values of TGI for individual entries
The figure you give is taken to be in µM; do not add the unit.

Compound String: Cc1cc2c(cc1C(=O)c1ccc(N)cc1)OCO2
Value Reported: 79.7

// lookup TGI for `CCc1c(Cl)c(C)cc(O)c1Cl`
78.9

Any idea what TGI was measured for `O=S(=O)(Nc1ccc(Cl)cc1Cl)c1ccc(-c2cnc(C3CC3)o2)cc1` ?
7.55

Quick check: TGI of `O=C(NNc1ccccc1)C(=O)NNc1ccccc1` ?
14.5

###

# Tested on: OVCAR-5 ovarian
# Protocol Description: NCI tumour cell line growth inhibition, 48 h
Overview of reported TGI across a group of compounds:
Your answer is read as µM, so omit the unit and give the number.

Answered examples (3):
Compound: COC(C)(C)OCCN1CCN(CCN2C3=C(C=C(C(C)=O)C3)Sc3ccccc32)CC1
Test System: OVCAR-5 ovarian
TGI / µM: 59.1
//
Compound: CSc1ccccc1C#C/C=C\C#Cc1ccccc1N
Test System: OVCAR-5 ovarian
TGI / µM: 50
//
Compound: COC(=O)NC(C(F)(F)F)(C(F)(F)F)P1(=O)OCCCO1
Test System: OVCAR-5 ovarian
TGI / µM: 82.1

Which TGI is reported for this compound? `S=c1[nH]c2c(Cl)c(Cl)c(Cl)c(Cl)c2[nH]1`
65

Look up TGI for this compound: `COc1ccc(/C(=C\C=C(C#N)C#N)Sc2nc3ccccc3s2)cc1`
15.1

###

# Tested on: SF-295 CNS
# Protocol Description: NCI tumour cell line growth inhibition, 48 h
Measured Property: TGI

Compound: CC(C(=O)O)c1cccc(Oc2ccccc2)c1 (stereo unspecified)
Measured Property: TGI
Value Reported: > 100 µM

Would you kindly share the measured TGI for c1ccc2c(c1)SCCC2NC1=NCCO1 (stereo unspecified) ?
> 100 µM

Given the entry `CC(=O)N(C)CCc1c[nH]c2ccccc12` , report its measured TGI.
> 100 µM

So what does the record say about TGI for `Nc1c(C(=O)c2ccccc2)cnn1-c1ccc(F)cc1` ?
> 25 µM

// query TGI value for entry `COc1ccc(-c2cc3ccccc3oc2=O)cc1OC`
> 100 µM

Which TGI value is on record for O=C1NC(N/N=C\C(O)C(O)C(O)C(O)CO)=N/C1=C/c1ccc(Cl)cc1 (stereo unspecified) ?
> 100 µM

// TGI lookup, key: `CCOC(=O)NNC(=O)NCCCCNC(=O)NNC(=O)OCC`
> 100 µM

Reported TGI, compound CC(C)OC(=O)[C@H](C)NP(=O)(OC[C@H]1O[C@@H](n2ccc(=O)[nH]c2=O)[C@](C)(F)[C@@H]1O)Oc1ccccc1 (stereo partly specified) : ____
> 100 µM

Data request, read-out TGI, for FC(F)(F)c1ccc2c(c1)nc(-c1ccc(Cl)cc1)n2CC1CCCN2CCCCC12 (stereo unspecified)
31.7 µM

# lookup: TGI of O=C(Nc1ccc([N+](=O)[O-])cc1[N+](=O)[O-])C(=O)C(C(=O)c1ccc2ccccc2c1)C1OC(=O)c2ccccc21 (stereo unspecified)
55.1 µM

Requested read-out: TGI. Entry: O=S(=O)(c1ccccc1)N1N=C2c3ccccc3CCC[C@H]2C1c1ccccc1 (stereo partly specified)
> 100 µM

Requested read-out: TGI. Entry: `CN(C)CCCn1cnc2cc(Cl)c(Cl)cc21`
> 100 µM

Please look up its TGI: `Cc1nc2ccc(F)cc2c2c1CCN2c1ccc(Cl)cc1`
> 100 µM

What does the data say about its TGI? Entry: `CCN(CC)CCSc1c2ccccc2nc2c(OC)ccc(OC)c12`
59.4 µM

So what does the record say about TGI for CC(C)[Si]1(C(C)C)OCC2OC3(CO)C(Oc4nc(=O)ccn43)C2O[Si](C(C)C)(C(C)C)O1 (stereo unspecified) ?
29.6 µM

GET /values?readout=TGI&item= `CCOC(=O)c1c(-c2ccc(OC)cc2)c(C#N)c2c(C#N)c(N)nn2c1N`
32.9 µM
